Field: Ki. System: UniProt Q99720. Provenance: assorted publications.

Example cases with answers are listed next.
COMPOUND	TARGET_ENTITY	Ki
COc1ccc(CN2CC(C3CCN(CC(C)C)CC3)OC3(CC3)C2)cc1 (stereo not drawn)	UniProt Q99720	< 500 nM
CCC[C@H](c1nc2ccc(F)cc2c(=O)n1CC(C)C)N1CCCN(CC)CC1	UniProt Q99720	< 500 nM
Cc1nn2c(C3CCCN(Cc4ccc(Cl)cc4)C3)ccnc2c1CNCC(C)C (stereo not drawn)	UniProt Q99720	< 500 nM
Cc1nn2c([C@@H]3CCCN([C@@H](CO)c4ccccc4)C3)ccnc2c1-c1ccncc1	UniProt Q99720	> 1000 nM

What the record says about Nc1ccc(-c2cc3nccc(C4CCCN(Cc5ccccc5)C4)n3n2)cn1 (stereo not drawn) : Ki is > 1000 nM

What the record says about COCCCCNCc1c(C)nn2c(C3CCCN(Cc4ccc(Cl)cc4)C3)ccnc12 (stereo not drawn) : Ki is < 500 nM

What the record says about CCCC(c1nc2ncccc2c(=O)n1CC)N1CCCN(C)CC1 (stereo not drawn) : Ki is > 1000 nM
